# System: MHCC97-H cells' subcutaneous tumor
# Assay text: Nude mice subcutaneous tumor model
# Assay type: in vivo
# Particulars: oral, every 2 days, 30 days; agent combined with compound 4 (1 mg/kg)
Recorded Tumor Weights IC50 Values, Compound 4, one value per entry.

{"columns": ["Structure string", "Tumor Weights IC50 Values, Compound 4 (mg/kg)"],
 "data": [
  ["CNC(=O)c1cc(Oc2ccc(NC(=O)Nc3ccc(Cl)c(C(F)(F)F)c3)cc2)ccn1", 0.15],
  ["CNC(=O)c1cc(Oc2ccc(NC(=O)Nc3ccc(Cl)c(C(F)(F)F)c3)c(F)c2)ccn1", 0.55],
  ["N#CC1(c2ccc(NC(=O)c3cccnc3NCc3ccncc3)cc2)CCCC1", 0.59],
  ["COc1cc2nccc(Oc3ccc(NC(=O)NC4CC4)c(Cl)c3)c2cc1C(N)=O", 0.10],
  ["COc1cc2c(Oc3ccc4[nH]c(C)cc4c3F)ccnc2cc1OCC1(N)CC1", 0.42]
]}
